System: TK-10
Assay: NCI tumour cell line growth inhibition, 48 h
Calls of active or inactive are those of the source. No stated cut-off is given here; in the data, active = GI50 up to about 1.1 µM and inactive = higher.
Pick one and only one: active, inactive

Solved entries:
compound	class
Cc1cc(C(C)(C)C)cc(CNC2CCCCC2)c1O	inactive
CC(C)(C)OC(=O)NCC(C#N)CNC(=O)OC(C)(C)C	inactive
Cc1ccc2c(O)cc(-c3sc4ccccc4c3C)nc2n1	inactive
Oc1ccc(/C=C/c2cc(O)cc(O)c2)cc1 [RESVERATROL]	inactive

Challenge: I'd appreciate the recorded outcome for O=[N+]([O-])C(=C(Nc1ccccc1)Nc1ccccc1)/C(Cl)=C(\Cl)[N+](=O)[O-] from this test.
Response given: inactive

Challenge: I'd appreciate the recorded outcome for COC(=O)C1CCCN1C(=O)C(Cc1cn(S(=O)(=O)c2ccc(C)cc2)cn1)NC(=O)OC(C)(C)C (stereo unspecified) from this test.
Response given: inactive

Challenge: I'd appreciate the recorded outcome for CC1=NN(C(=O)CC(=O)Nc2ccc(C)cc2)C(=O)C1/N=N/c1ccc(C(=O)O)cc1 (stereo unspecified) from this test.
Response given: inactive

###

Test system: MOLT-4
Assay: NCI tumour cell line growth inhibition, 48 h
Activity calls are given as the source filed them. Rule as the data show it: active = GI50 up to about 1.1 µM and inactive = higher.
measurement-label: GI50

compound	tested-on	measurement-label	measured
CN(C)CCNc1nc2c(no[n+]2[O-])c2ccccc12.[O-][Cl+3]([O-])([O-])O	MOLT-4	GI50	32.4 µM (inactive)
COC(=O)/C=C(\S/C=C(/c1ccccc1)N1CCn2c(C(=O)c3ccccc3)c(C(=O)OC)c(C(=O)OC)c21)C(=O)OC	MOLT-4	GI50	1.79 µM (inactive)
CC1C(=O)OC2CC[N+]3([O-])CC=C(COC(=O)C(C)(O)C1(C)O)C23 (stereo not given)	MOLT-4	GI50	> 100 µM (inactive)
CC(C)Oc1cccc(N2C(NCc3c[nH]c4ccccc34)=Nc3ccncc3S2(=O)=O)c1	MOLT-4	GI50	16.7 µM (inactive)

Let us move to another entry and its GI50.
Challenge: Answer with the recorded GI50 for the compound listed here: COc1ccc2c(c1)OCC1(O)Cc3ccccc3OC21 (stereo not given)
Response given: 78.9 µM (inactive)

###

Known GI50 of a selection of molecules
Test system: SR
Assay: NCI tumour cell line growth inhibition, 48 h
Activity calls are given as the source filed them. No stated cut-off is given here; in the data, active = GI50 up to about 1.1 µM and inactive = higher.

// solved cases for GI50 follow
molecule	tested-on	measured
CCCCCCCCCCCCCCCCSS(C)(=O)=O	SR	4.65 µM (inactive)
CCSc1c(C)c2c(n(Cc3ccc(OC)cc3)c1=O)Cc1ccccc1C2	SR	3.61 µM (inactive)
CNCCNc1ccc2c3c(nn2CCNCCO)-c2c(O)ccc(O)c2C(=O)c13	SR	0.0519 µM (active)
Clc1ccc2c(c1)[nH]c1c2nc2ccccn21	SR	25.1 µM (inactive)
Cc1ccccc1NC(=O)C1C(=O)N(c2ccccc2C)C(=O)/C1=N\NC(N)=S (stereo unspecified)	SR	> 100 µM (inactive)
O=C1C(=C(C(F)(F)Cl)C(F)(F)Cl)C2CCC1C2 (stereo unspecified)	SR	0.0655 µM (active)

Challenge: Answer with the recorded GI50 for the molecule listed here: Cc1ccc(S(=O)(=O)NNC(C[N+](=O)[O-])c2ccccc2)cc1 (stereo unspecified)
Response given: 1.06 µM (active)

###

Known GI50 of a selection of compounds
Test system: TK-10
Assay: NCI tumour cell line growth inhibition, 48 h
The source made the active and inactive calls. Rule as the data show it: active = GI50 up to about 1.1 µM and inactive = higher.

Challenge: Answer with the recorded GI50 for the compound listed here: OC(c1cc(-c2ccc(Cl)cc2)nc2ccccc12)C1CCCCN1 (stereo not drawn)
Response given: 4.32 µM (inactive)

Challenge: Answer with the recorded GI50 for the compound listed here: Cc1ccsc1/C=N/NC1=NCCN1
Response given: > 100 µM (inactive)

Challenge: Answer with the recorded GI50 for the compound listed here: COC(=O)NC(C(F)(F)F)(C(F)(F)F)P1(=O)OCCCO1
Response given: 37.4 µM (inactive)

###

System: HCC 2998
Experiment: NCI tumour cell line growth inhibition, 48 h
Calls of active or inactive are those of the source. Rule as the data show it: active = GI50 up to about 1.1 µM and inactive = higher.
Known GI50 of a selection of molecules

molecule	tested-on	measured
Cc1ccc(S(=O)(=O)NNC(C[N+](=O)[O-])c2ccccc2)cc1 (centres undefined)	HCC 2998	2.9 µM (inactive)

Challenge: Answer with the recorded GI50 for the molecule listed here: CCN(CC)Cc1nc2sc3c(c2c(=O)n1-c1ccccc1)CCCC3
Response given: 17.6 µM (inactive)

Challenge: Answer with the recorded GI50 for the molecule listed here: C#CCNC(=O)NC(CCCCNC(=O)OCc1ccccc1)C(=O)OCc1ccccc1 (centres undefined)
Response given: 31.5 µM (inactive)

Challenge: Answer with the recorded GI50 for the molecule listed here: C=CCn1c(=O)c(Br)nn(CCOCP(=O)(OCC)OCC)c1=O
Response given: > 100 µM (inactive)

Challenge: Answer with the recorded GI50 for the molecule listed here: FC(F)(F)c1ccc2c(-c3cc[nH]c3)ccnc2c1
Response given: > 100 µM (inactive)

Challenge: Answer with the recorded GI50 for the molecule listed here: CCCCc1ccc(Nc2nc3c(ncn3C3OC(COC(C)=O)C(OC(C)=O)C3OC(C)=O)c(=O)[nH]2)cc1 (centres undefined)
Response given: 20.7 µM (inactive)

###

Tested on: NCI/ADR-RES
Assay: NCI tumour cell line growth inhibition, 48 h
Active and inactive are the calls of the source. Rule as the data show it: active = GI50 up to about 1.1 µM and inactive = higher.
Pick one and only one: active, inactive

molecule	class
CCOc1nc2c(N3CCCC3)nc(N3CCNCC3)nc2nc1NCc1ccccc1	inactive
Cc1cc(-n2nnc(C(=O)O)c2-c2ccccc2)c2ccc(Cl)cc2n1	inactive
COC(=O)[C@H](Cc1ccccc1)NC(=O)NCCN(CCNC(=O)N[C@@H](Cc1ccccc1)C(=O)OC)C(=O)N[C@@H](Cc1ccccc1)C(=O)OC	inactive

Challenge: I'd appreciate the recorded outcome for COC(=O)/C=C(\C)CC(O)/C=C(\C)CCC=C(C)C (centres undefined) from this test.
Response given: inactive

###

Test system: HCT-15
measurement-label: GI50

// solved cases for GI50 follow
molecule	measured
CC12OC3CC(O1)C1(C=O)C4CCC5(C)C(c6ccc(=O)oc6)CCC5(O)C4CCC1(C3)O2 (centres undefined)	0.212 µM
CCCCc1ccc(Nc2nc3c(ncn3C3OC(COC(C)=O)C(OC(C)=O)C3OC(C)=O)c(=O)[nH]2)cc1 (centres undefined)	> 100 µM
O=C1C=CC(=O)c2c1ccc1c3ccccc3n(CCCCCn3c4ccccc4c4ccc5c(c43)C(=O)C=CC5=O)c21	17.2 µM
CC(C)C[C@H](NC(=O)[C@H](Cc1ccc(F)cc1)NC(=O)c1ccccn1)B(O)O	< 0.01 µM

Challenge: Answer with the recorded GI50 for the molecule listed here: Oc1ccc2ccccc2c1CCc1c(O)ccc2ccccc12
Response given: 14.4 µM

Challenge: Answer with the recorded GI50 for the molecule listed here: CC(=O)CC(=O)CCC(=O)O
Response given: > 100 µM

Challenge: Answer with the recorded GI50 for the molecule listed here: CCOC(=O)c1c(NNc2ccccc2)nc2ccccc2c1-c1ccccc1
Response given: 33 µM

Challenge: Answer with the recorded GI50 for the molecule listed here: c1ccc2cc(NCNc3ccc4ccccc4c3)ccc2c1
Response given: 15.6 µM

Challenge: Answer with the recorded GI50 for the molecule listed here: COc1cccc(OC)c1C1ON=C(c2ccccc2)N1C12CC3CC(CC(C3)C1)C2 (centres undefined)
Response given: > 100 µM

Challenge: Answer with the recorded GI50 for the molecule listed here: NCCC(=O)NC(Cc1c[nH]cn1)C(=O)O (centres undefined)
Response given: > 100 µM

Challenge: Answer with the recorded GI50 for the molecule listed here: Cc1ccc2c(=O)c(-c3nnsn3)c[nH]c2n1
Response given: > 100 µM

Challenge: Answer with the recorded GI50 for the molecule listed here: CN(C)c1ccc(/N=C2/C=CC(=C(C#N)C#N)c3ccccc32)cc1
Response given: 0.195 µM

###

Test system: SF-295
Assay: NCI tumour cell line growth inhibition, 48 h
The source made the active and inactive calls. Cut-off read from the data, not from the text of the source: active = GI50 up to about 1.1 µM and inactive = higher.
Known GI50 of a selection of molecules

// solved cases for GI50 follow
molecule	GI50
CC(C)N(Cc1ccccc1)S(=O)(=O)c1nc(C(C)(C)C)n[nH]1	> 100 µM (inactive)
COc1cc(C)c(/C=C/C(=O)N2C(=O)OC[C@@H]2c2ccccc2)c(C)c1	> 100 µM (inactive)
COc1ccc(Cc2nc3cc([N+](=O)[O-])ccc3n2C[C@@H]2CCCN3CCCCC23)cc1 (stereo not given in full)	18 µM (inactive)
CCCC1C(C#N)(C#N)C(C#N)=C(N)C1(C)C(C)=O (stereo not given)	> 100 µM (inactive)

Let us move to another entry and its GI50.
Challenge: Answer with the recorded GI50 for the molecule listed here: Clc1ccc(-c2nnc(-c3cccc4ccccc34)o2)cc1Cl
Response given: > 100 µM (inactive)

###

Test system: M14
Assay: NCI tumour cell line growth inhibition, 48 h
Active and inactive are the calls of the source. Rule as the data show it: active = GI50 up to about 1.1 µM and inactive = higher.
Known GI50 of a selection of compounds

compound	measured
COc1ccc(OCC(=N/NC(=O)c2ccncc2)/N=C/c2ccncc2)cc1	82 µM (inactive)
O=C(O)CCCOc1cc(-c2ccccc2F)nc2cc3c(cc12)OCO3	3.73 µM (inactive)
CC(=O)Oc1c(-c2ccccc2)oc2ccccc12	2.02 µM (inactive)
COc1ccc(Cc2nc3cc([N+](=O)[O-])ccc3n2C[C@@H]2CCCN3CCCCC23)cc1 (stereo partly specified)	14.2 µM (inactive)
CCN(CC)Cc1nc2sc3c(c2c(=O)n1-c1ccccc1)CCCC3	15.9 µM (inactive)
Cc1ccc2c(O)cc(-c3sc4ccccc4c3C)nc2n1	17.5 µM (inactive)
NS(=O)(=O)c1ccc(NNc2c3ccccc3nc3ccccc23)cc1	11.2 µM (inactive)
Cc1nc(-c2cc3cc([N+](=O)[O-])ccc3oc2=O)cs1	> 100 µM (inactive)
Oc1ccc(/C=C/c2cc(O)cc(O)c2)cc1	49.8 µM (inactive)
CC1=NN(C(=O)CC(=O)Nc2ccc(C)cc2)C(=O)C1/N=N/c1ccc(C(=O)O)cc1 (stereo unspecified)	> 100 µM (inactive)

Challenge: Answer with the recorded GI50 for the compound listed here: COc1ccccc1/C=C1\Sc2scc(-c3ccc(O)c(O)c3)[n+]2C1=O
Response given: 15.1 µM (inactive)

Challenge: Answer with the recorded GI50 for the compound listed here: O=C1C=CC(=O)N1n1c(-c2ccccc2)n[nH]c1=O
Response given: > 100 µM (inactive)

Challenge: Answer with the recorded GI50 for the compound listed here: Nc1ccc(-c2cc(C(=O)Nc3nccs3)nc(S)n2)cc1
Response given: > 100 µM (inactive)

Challenge: Answer with the recorded GI50 for the compound listed here: CCSC1=N/C(=C\c2ccccc2O)C(Nc2ccc(C)cc2)=N1
Response given: 48.8 µM (inactive)

Challenge: Answer with the recorded GI50 for the compound listed here: O=c1[nH]c(=O)n(C2OC(CO)C(O)C2O)cc1OCCCc1ccccc1 (stereo unspecified)
Response given: > 100 µM (inactive)

Challenge: Answer with the recorded GI50 for the compound listed here: N#Cc1c2nc3ccccc3nc2n2ccccc12
Response given: > 100 µM (inactive)
